# method description: qHTS for differential inhibitors of proliferation of Plasmodium falciparum line GB4 (AID 1816);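 further: parasite growth measured after 72 h incubation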
# condition summary: Plasmodium falciparum GB4 proliferation inhibition; series mostly up to 28.7 µM
Inconclusive results are not listed. Active and inactive are the calls of the source. The call rests on the fitted dose curve; in most records, active means well fitted curve in the direction sought with a large enough effect; inconclusive means small, poorly fitted or top-dose-only effect, or another doubt; inactive means no such curve, though single readings can be large or run the other way.
Answer with one of the outcomes given here: class 1 = active, class 0 = inactive

Identify the outcome logged in this assay for the molecule shown: `CCCN1CCC[C@H](c2cccc(O)c2)C1` class 1

***
Which outcome did this test record for the molecule `CC[C@H](CO)Nc1nc(NCc2ccccc2)c2ncn(C(C)C)c2n1` ? class 1

`O=C(O)Cc1cnc[nH]1` , same question. class 0

What would you report for `c1ccc2sc(C3(N4CCCCC4)CCCCC3)cc2c1` ? class 1

And for `CC(=O)NCCc1c[nH]c2ccccc12` ? class 0
